target: pooled human IgG (human IgG1,2,3 and 4)
READOUT: Enzyme Activity Endpoint Assay (purified): Fc

>>> result("PRT-303 (protein) MVTSVWTKGVTPPTDFIKGEDVFHAPYDAGQGWYDITKTFNGKDDLLCGAATAGNMLHWWFDQNKEYIEAYLKKHPEKQKIMFGDQELLDVRKAINTKGSQKNSELFNYFRDKAFPNLSARRLGVMPDLVLDMFINGYYLNVTKTQTTDVNRTYQEKDKRGGIFDAVFTRGDQSKLLTSRHDFKEKGLKEISDLIKQELTEGKALGLSHTYANVRISHVINLWGADFDSDGNLKAIYVTDSDSNASIGMKKYGVGVNSAGKVAISAKEIKEDNIGAQVLGLFTLSTGQDIWNQTN")
"482 ng/µL"
